Where do these numbers come from? They come from paper PMC9174720.

Tested on: MRC-5
protocol.details: MTT cytotoxicity assay on MRC-5 cells
Type: cell-based
assay.context: Homo sapiens, MRC5; MRC-5 cell line, 24 h exposure; read-out: Growth inhibitory effects IC50
result.type: IC50

Give me measured IC50, please, for this molecule: CCc1c2c(nc3ccc(OC(=O)N4CCC(N5CCCCC5)CC4)cc13)-c1cc3c(c(=O)n1C2)COC(=O)[C@]3(O)CC [irinotecan, Irinotecan, reference compound]
> 500 µM

Give me measured IC50, please, for this molecule: O=C(N/N=C/c1ccccc1)c1ccccc1O
> 500 µM

Give me measured IC50, please, for this molecule: O=C(N/N=C/c1ccc(O)c(O)c1)c1ccccc1O
> 500 µM

Give me measured IC50, please, for this molecule: COc1cc(/C=N/NC(=O)c2cc(O)c(O)c(O)c2)ccc1O
> 500 µM

Give me measured IC50, please, for this molecule: COc1cc(C(=O)N/N=C/c2ccc(O)cc2)ccc1O
> 500 µM

Give me measured IC50, please, for this molecule: O=C(N/N=C/c1ccc(O)cc1O)c1ccccc1
> 500 µM

Give me measured IC50, please, for this molecule: O=C(N/N=C/c1ccc(O)cc1)c1ccccc1
> 500 µM

Give me measured IC50, please, for this molecule: COc1cc(C(=O)N/N=C/c2ccc(O)cc2O)ccc1O
> 500 µM

Give me measured IC50, please, for this molecule: O=C(N/N=C/c1ccccc1O)c1cc(O)c(O)c(O)c1
104 µM

Give me measured IC50, please, for this molecule: O=C(N/N=C/c1ccc(O)c(O)c1)c1cc(O)c(O)c(O)c1
> 500 µM

Give me measured IC50, please, for this molecule: O=C(N/N=C/c1ccc(O)cc1O)c1ccccc1O
> 500 µM

Give me measured IC50, please, for this molecule: COc1cc(/C=N/NC(=O)c2ccccc2O)ccc1O
> 500 µM

Give me measured IC50, please, for this molecule: COc1cc(C(=O)N/N=C/c2ccccc2O)ccc1O
> 500 µM

Give me measured IC50, please, for this molecule: COc1cc(/C=N/NC(=O)c2ccccc2O)cc(OC)c1O
> 500 µM

Give me measured IC50, please, for this molecule: COc1cc(/C=N/NC(=O)c2ccccc2)cc(OC)c1O
> 500 µM

Give me measured IC50, please, for this molecule: COc1cc(/C=N/NC(=O)c2ccc(O)c(OC)c2)ccc1O
> 500 µM

Give me measured IC50, please, for this molecule: O=C(N/N=C/c1ccccc1)c1ccccc1
> 500 µM

Give me measured IC50, please, for this molecule: O=C(N/N=C/c1ccccc1O)c1ccc(O)cc1
> 500 µM

Give me measured IC50, please, for this molecule: O=C(N/N=C/c1ccc(O)cc1)c1ccc(O)cc1
> 500 µM

Give me measured IC50, please, for this molecule: O=C(N/N=C/c1ccc(O)c(O)c1)c1ccc(O)cc1
> 500 µM

Give me measured IC50, please, for this molecule: COc1cc(C(=O)N/N=C/c2cc(OC)c(O)c(OC)c2)ccc1O
> 500 µM

Give me measured IC50, please, for this molecule: O=C(N/N=C/c1ccc(O)cc1O)c1cc(O)c(O)c(O)c1
76.4 µM

Give me measured IC50, please, for this molecule: O=C(N/N=C/c1ccc(O)c(O)c1)c1ccccc1
> 500 µM

Give me measured IC50, please, for this molecule: COc1cc(/C=N/NC(=O)c2ccc(O)cc2)ccc1O
> 500 µM

Give me measured IC50, please, for this molecule: O=C(N/N=C/c1ccccc1O)c1ccccc1
> 500 µM

Give me measured IC50, please, for this molecule: COc1cccc(/C=N/NC(=O)c2ccccc2O)c1O
37.9 µM

Give me measured IC50, please, for this molecule: O=C(N/N=C/c1ccccc1O)c1ccccc1O
> 500 µM

Give me measured IC50, please, for this molecule: O=C(N/N=C/c1ccc(O)cc1O)c1ccc(O)cc1
> 500 µM

Give me measured IC50, please, for this molecule: O=C(N/N=C/c1ccccc1)c1ccc(O)cc1
> 500 µM

Give me measured IC50, please, for this molecule: COc1cc(/C=N/NC(=O)c2ccccc2)ccc1O
> 500 µM

Give me measured IC50, please, for this molecule: COc1cc(C(=O)N/N=C/c2cccc(OC)c2O)ccc1O
> 500 µM

Give me measured IC50, please, for this molecule: O=C(N/N=C/c1ccc(O)cc1)c1ccccc1O
> 500 µM

Give me measured IC50, please, for this molecule: COc1cc(C(=O)N/N=C/c2ccccc2)ccc1O
> 500 µM

Give me measured IC50, please, for this molecule: O=C(N/N=C/c1ccccc1)c1cc(O)c(O)c(O)c1
175 µM

Give me measured IC50, please, for this molecule: COc1cc(/C=N/NC(=O)c2ccc(O)cc2)cc(OC)c1O
> 500 µM

Give me measured IC50, please, for this molecule: Nc1nc2c(c(=O)[nH]1)N(C=O)C(CNc1ccc(C(=O)N[C@@H](CCC(=O)O)C(=O)O)cc1)CN2 (stereo partly drawn) [leucovorin, Leucovorin, reference compound]
> 500 µM

Give me measured IC50, please, for this molecule: COc1cc(/C=N/NC(=O)c2cc(O)c(O)c(O)c2)cc(OC)c1O
84.3 µM

Give me measured IC50, please, for this molecule: COc1cccc(/C=N/NC(=O)c2ccc(O)cc2)c1O
> 500 µM

Give me measured IC50, please, for this molecule: COc1cccc(/C=N/NC(=O)c2cc(O)c(O)c(O)c2)c1O
180 µM

Give me measured IC50, please, for this molecule: COc1cc(C(=O)N/N=C/c2ccc(O)c(O)c2)ccc1O
> 500 µM

Give me measured IC50, please, for this molecule: O=C(N/N=C/c1ccc(O)cc1)c1cc(O)c(O)c(O)c1
92 µM

Give me measured IC50, please, for this molecule: COc1cccc(/C=N/NC(=O)c2ccccc2)c1O
> 500 µM
